# experiment-description: chemical genetic growth profiling, strain panel (AID 1159580);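 also: tested at 20 µM; growth read once vehicle control cultures reached saturation at 30 °C; 1 = growth at the plate median or of vehicle wells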
# test-parameters: S. cerevisiae deletion strains, growth OD, locus YGR092W, strain DBF2
Screen size: about 5,500 compounds; about 2,000 (36%) were called active. Roughly 18% stayed inconclusive and do not appear here. Rule as the data show it: active = normalized growth mostly below about 0.91 (no sharp cut-off); inconclusive = no clear call, values can overlap the other calls; inactive = mostly above about 0.92. This is one part of the list.
Classes used: active, inactive

molecule=CSc1cccc(N2C(=O)CC(c3c(Cl)cccc3Cl)CC2=O)c1 category_label=inactive
molecule=CC(C)(O)C#Cc1ccc(/C=N\Nc2ccccc2)cc1 category_label=active
molecule=CCOC(=O)NC(=S)NC12CC3CC(CC(C3)C1)C2 category_label=inactive
molecule=N/C(=N/OC(=O)c1ccc(Cl)cc1)c1ccc(F)cc1F category_label=active
molecule="CCCC1c2ccsc2CCN1C(=S)Nc1ccc(Cl)cc1Cl (stereo unspecified)" category_label=inactive
molecule=O=C(Nc1ccccn1)c1cc(-c2ccccc2)c(C(F)(F)F)s1 category_label=inactive
molecule=O=C(Nc1ccc(Cl)cc1Cl)c1cnccc1C(F)(F)F category_label=inactive
molecule=COc1cc(Cl)c(NS(=O)(=O)c2cc(Br)c(Br)s2)c(OC)c1 category_label=inactive
molecule=COCCOc1ccccc1NC(=S)SCCSC(=S)Nc1ccccc1OCCOC category_label=inactive
molecule="N#CC1=C(N)C(C#N)(C#N)C2(CCCCC2)C2CCCC=C12 (stereo unspecified)" category_label=inactive
molecule="CC12CC[C@@H](O)CC1=CC[C@@H]1C2CCC2(C)C(=O)CC[C@@H]12 (stereo partly specified)" category_label=inactive

---

normalized growth overview
# experiment-description: chemical genetic growth profiling, strain panel (AID 1159580)
# test-parameters: S. cerevisiae deletion strains, growth OD, locus YML094W, strain GIM5, stronger effect = lower value
Hit rate of the full screen: of about 5,500 compounds, about 2,000 (36%) were called active. Roughly 18% stayed inconclusive and do not appear here. The list shows a part of the results.
measurement-label: normalized growth

molecule=Cc1ccc(CSC(=N)N)cc1 data_value=0.977
molecule=O=C1CC(c2ccccc2)=NO1 data_value=0.743
molecule=O=c1[nH]c(-c2cc(Br)cs2)nc2ccc(Cl)cc12 data_value=1.04
molecule=COC(=O)c1ccc([N+](=O)[O-])cc1Cl data_value=0.964
molecule=Cc1cccc2nc(-c3ccccc3)oc(=O)c12 data_value=0.88
molecule=O=C(Nc1ccc(Cl)cc1Cl)c1cnccn1 data_value=0.91
molecule=COC(=O)c1cc(OC)c(OC)cc1NS(=O)(=O)c1ccc(C)cc1 data_value=1.03
molecule=CC/C(=N/Oc1ccc(C(F)(F)F)cn1)c1ccc(-c2ccccc2F)cc1 data_value=1.01
molecule="O=C(Nc1cc(C(F)(F)F)cc(C(F)(F)F)c1)C(Sc1ccccn1)c1ccccc1 (stereo unspecified)" data_value=0.953
molecule=Cc1ccc(CS/C(N)=N\N)cc1 data_value=1.01
molecule=C/C(=N/NC1=NCCN1)c1ccc(F)cc1 data_value=0.996
molecule=COC(=O)c1ccc(C(=O)OC)nc1 data_value=0.942
molecule=Cc1cc(/C=N/NC(N)=S)c2c(C)ccc(C(C)C)cc1-2 data_value=1.07
molecule=COc1ccccc1NC(=O)N1CCCN(C(=O)c2cccs2)CC1 data_value=1.02
molecule=ON(Cc1c(F)cccc1Cl)Cc1c(F)cccc1Cl data_value=1.01
molecule=S=c1[nH]c2ccccc2[nH]1 data_value=1.06
molecule=CC(C)(O)C#Cc1ccc(/C=N\O)cc1 data_value=0.975
molecule=O=C(CCN1CCOCC1)c1ccc2c(c1)OCCO2 data_value=0.802
molecule=O=C(O)c1cc(C(F)(F)F)ccc1F data_value=0.916
molecule="CN1c2ccccc2C(=O)NC1c1cc(Br)cs1 (stereo unspecified)" data_value=1.01
molecule=COC(=O)c1ccc(-c2ccccc2F)cc1 data_value=0.958
molecule=O=C(CCCCCCCCC(=O)c1ccccc1)c1ccccc1 data_value=1.01
molecule=CC(C)c1nc2ccccc2[nH]1 data_value=1.01
molecule=CSc1nc2ccc(NC(=O)c3c(-c4ccccc4)noc3C)cc2s1 data_value=0.974
molecule=COC(=O)c1ccc(S(=O)(=O)NCc2ccccc2)n1C data_value=1.01
molecule=C/C(=N/OC(=O)c1ccc(Cl)cc1)c1ccc(F)cc1 data_value=0.809
molecule=CC(C)(C)c1nc(N)sc1Br data_value=0.965
molecule=CCOC(=O)c1c(C)csc1N data_value=0.984
molecule=CC(=O)c1ccc(-c2ccc(C(C)=O)cc2)cc1 data_value=0.955
molecule=CCOC(=O)CCc1cc(N=Cc2cc(Cl)cc(Cl)c2O)c(O)c(N=Cc2cc(Cl)cc(Cl)c2O)c1 data_value=0.243
molecule=Cc1onc(-c2ccccc2Cl)c1C(=O)Nc1ccc(S(=O)(=O)Nc2nccs2)cc1 data_value=1.03

---

# experiment-description: chemical genetic growth profiling, strain panel (AID 1159580);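 also: tested at 20 µM; growth read once vehicle control cultures reached saturation at 30 °C; 1 = growth at the plate median or of vehicle wells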
# test-parameters: S. cerevisiae deletion strains, growth OD, locus YHR030C, strain SLT2, stronger effect = lower value
In all, about 5,500 compounds went through this assay and about 2,000 (36%) were called active. Not shown: some 18% with an inconclusive outcome. Some of the results follow.
Labelling field: enter fulfilled if recorded normalized growth is less than 0.9. Enter not fulfilled if it equals or exceeds that cut-off.

compound=CCOC(=O)CCc1cc(N=Cc2cc(Br)ccc2O)c(O)c(N=Cc2cc(Br)ccc2O)c1 category_label=fulfilled
compound=CN(C)c1ccc(/C=N\NC(=O)CCc2ccc(O)cc2)c(Cl)c1 category_label="not fulfilled"
compound="CC1CC2C(C(O)CC3(C)C2CCC3(O)C(=O)COC(=O)CCC(=O)O)C2(C)C=CC(=O)C=C12 (stereo not given)" category_label="not fulfilled"
compound=S=C(NCCCn1ccnc1)Nc1cc(Cl)ccc1Cl category_label=fulfilled

---

Here, each record is paired with measured normalized growth data.
# experiment-description: chemical genetic growth profiling, strain panel (AID 1159580);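 also: tested at 20 µM; growth read once vehicle control cultures reached saturation at 30 °C; 1 = growth at the plate median or of vehicle wells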
# test-parameters: S. cerevisiae deletion strains, growth OD, locus YBL105C, strain PKC1, stronger effect = lower value
About 2,000 (36%) of roughly 5,500 compounds were called active. Not shown: some 18% with an inconclusive outcome. This is one part of the list.
measurement-label: normalized growth

compound=O=C(Nc1cccc(C(F)(F)F)c1)Oc1ccc(F)cc1Cl data_value="0.977 (inactive)"
compound=NC(=NC(=O)c1ccc(Cl)cc1)c1cccs1 data_value="0.964 (inactive)"
compound="CCCCCCCC1CCC/C1=N/OC(=O)c1cccs1 (stereo unspecified)" data_value="1.01 (inactive)"
compound=Cc1cc(C(=O)O/N=C(/N)c2ccc([N+](=O)[O-])o2)no1 data_value="0.968 (inactive)"
compound=CCOC(=O)CCc1cc(N=Cc2cc(Br)ccc2O)c(O)c(N=Cc2cc(Br)ccc2O)c1 data_value="0.959 (inactive)"
compound=CCOC(=O)c1c(N=Cc2cc(Br)c(Br)cc2O)sc2c1CCCC2 data_value="0.97 (inactive)"
compound=O=S(=O)(Nc1cc(C(F)(F)F)ccc1F)c1cc(C(F)(F)F)ccc1Cl data_value="0.947 (inactive)"
compound=COc1cc(C(=O)Oc2c(Cl)cc(Cl)cc2C=Nc2cccc([N+](=O)[O-])c2)cc(OC)c1OC data_value="0.971 (inactive)"
compound=Cc1onc(-c2ccccc2Cl)c1-c1nc2ccccc2c(=O)o1 data_value="0.975 (inactive)"
compound=Cc1nc(C(F)(F)F)c(C(=O)O/N=C(/N)c2ccc(Cl)cc2)s1 data_value="0.975 (inactive)"
compound="CC12CC[C@@H](O)CC1=CC[C@@H]1C2CCC2(C)C(=O)CC[C@@H]12 (stereo partly specified)" data_value="1.01 (inactive)"

---

# experiment-description: chemical genetic growth profiling, strain panel (AID 1159580);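 also: tested at 20 µM; growth read once vehicle control cultures reached saturation at 30 °C; 1 = growth at the plate median or of vehicle wells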
# test-parameters: S. cerevisiae deletion strains, growth OD, locus YPL106C, strain sse1, stronger effect = lower value
The whole screen tested about 5,500 compounds, of which about 2,000 (36%) were called active. About 18% were inconclusive and are not listed. The list shows a part of the results.
Binary label based on normalized growth with cut-off 1: below gives class 1, not below gives class 0.

molecule=CCOC(=O)c1ccc(N)cc1 category_label="class 1"
molecule="C#C[C@]1(O)CCC2C3CCc4cc(O)ccc4C3CC[C@@]21C (some centres not stated)" category_label="class 0"
molecule=O=C(O)c1cc(=O)c(O)c2c(O)c(O)ccc2c1 category_label="class 1"
molecule="CN1CCc2cccc3c2C1Cc1ccc(O)c(O)c1-3 (configuration not stated)" category_label="class 1"
molecule=COc1ccc(C=CC(=O)c2ccc(O)cc2O)cc1OC category_label="class 1"
molecule=O=C(O)c1cc(O)c(O)c(O)c1 category_label="class 0"
molecule="COc1cc2c(cc1O)CC1c3c(cc(O)c(OC)c3-2)CCN1C (configuration not stated)" category_label="class 0"
molecule=COc1ccc(/C=C/C(=O)c2ccc(O)cc2O)cc1 category_label="class 1"
molecule=COc1ccc(/C=C/C(=O)O)cc1OC category_label="class 0"
molecule="C[C@]12CCC3c4ccc(OS(=O)(=O)O)cc4CCC3C1CCC2=O (some centres not stated)" category_label="class 1"
molecule=CCOC(=O)C1=C[C@]2(CC)CCCN3CCc4c(n1c1ccccc41)[C@@H]32 category_label="class 0"
molecule="CC(=O)O[C@H]1C[C@@H](OC(C)=O)C(C)(C)C2C[C@@H](OC(C)=O)[C@]3(C)C(CC[C@@]4(C)[C@H](c5ccoc5)C(=O)[C@H]5O[C@]543)[C@]21C (some centres not stated)" category_label="class 0"
molecule="C[C@@H]1CC2C3CCC4=CC(=O)C=C[C@]4(C)[C@@]3(F)[C@@H](O)C[C@]2(C)[C@@]1(O)C(=O)COP(=O)(O)O (some centres not stated)" category_label="class 1"
molecule=CC1=C(/C=C/C(C)=C/C=C/C(C)=C/C=C/C=C(C)/C=C/C=C(C)/C=C/C2=C(C)CCCC2(C)C)C(C)(C)CCC1 category_label="class 0"
